Molecular target: T1, Human latent myostatin (human, UniProt O14793 25-266; O14793 267-375)
T1 construct: Biotinylated in the ELISAs; also called human myostatin latent form
T1 sequence 1: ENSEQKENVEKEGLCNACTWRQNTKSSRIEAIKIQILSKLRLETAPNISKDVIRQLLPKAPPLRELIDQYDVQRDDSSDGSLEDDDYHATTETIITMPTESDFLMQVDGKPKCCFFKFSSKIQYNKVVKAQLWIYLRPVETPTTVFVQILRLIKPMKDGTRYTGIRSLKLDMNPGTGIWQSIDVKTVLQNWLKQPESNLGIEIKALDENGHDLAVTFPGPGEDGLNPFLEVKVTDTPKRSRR
T1 sequence 2: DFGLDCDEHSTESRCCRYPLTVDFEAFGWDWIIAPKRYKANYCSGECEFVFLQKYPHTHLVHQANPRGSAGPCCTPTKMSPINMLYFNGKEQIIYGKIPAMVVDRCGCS
Experiment: SPR (BIACORE), additional dissociation phase at pH5.8 after dissociation at pH7.4, Scrubber 2.0 fit
Observation Type: koff (s⁻¹)
Answers are plain numbers, in s⁻¹.

Give reported koff value for Ab005 (M103205H028 / M103202L000) (antibody, human IgG1, kappa, V domains shown, Histidine-substituted variant of MS1032LO00-SG1) VH: QVTLKESGPVLVKPTETLTLTCTVSGIDLSSYDISWVRQAPGKGLEWVGIISYAGSTYYASWAKGRLTISKDTSKNQVVLTMTNMDPVDTATYYCARGVPAYSHGGDLWGQGTLVTVSS VL: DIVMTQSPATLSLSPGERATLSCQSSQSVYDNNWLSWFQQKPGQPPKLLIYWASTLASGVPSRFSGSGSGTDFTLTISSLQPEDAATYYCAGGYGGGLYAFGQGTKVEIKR
7.63e-05
